The measurements presented in this section are drawn from PubChem BioAssay AID1578.

Experiment: NOD1 signaling inhibitors, primary screen, cell-based, luminescence, uHTS (AID 1578);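 also: HEK-293T reporter cells stimulated with the NOD1 agonist gamma-tri-DAP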
Conditions: NOD1-driven NF-kB luciferase reporter cells, at 4 µM
In all, about 290,000 compounds went through this assay and about 3,000 (1%) were called active. Rule as the data show it: active = inhibition mostly above about 36% (no sharp cut-off); inactive = mostly below about 34%. The entries come from a sample that favours actives as a whole.
Mark one answer only. Choices: 1 (active), -1 (inactive)

Record excerpt, results attached:
O=C(Cc1ccc(-n2c(=O)c3ccccc3n(Cc3cccc([N+](=O)[O-])c3)c2=O)cc1)NCC1CCCO1 (stereo not drawn) : -1
Cn1c(=O)c(C(=O)CN2CCc3ccccc32)c(N)n(Cc2ccccc2)c1=O : -1
CC(=O)Nc1ccc(NC(=O)CSc2nc3nc(-c4cccs4)cc(C(F)(F)F)c3c(=O)[nH]2)cc1 : -1
Cc1csc(NC(=O)c2ccc(=O)[nH]c2)n1 : -1
O=C(c1ccco1)N(Cc1ccco1)Cc1cc2ccccc2[nH]c1=O : -1

Kindly review the next compound as well.
Prompt: For O=C(NC1CCSc2ccccc21)c1cccc(Cl)c1 (stereo not drawn) , what call appears in the results of this test?
Completion: -1
